Data origin: ChEMBL document CHEMBL1145395

// reported MIC for each item listed
Test system: Bacillus subtilis
TEST METHOD NOTES: Antibacterial activity against Bacillus subtilis ATCC 43223
Assay type: functional
Non-standard residues stand in square brackets, D forms with d. Residues, ends and D or L forms follow the SMILES beside them. ξ: configuration not given here. Pro(3ξ,4ξ-(CH2)4) = O=C(O)[C@H]1NCC2CCCCC21; Tic = O=C(O)[C@@H]1Cc2ccccc2CN1; ξTic = O=C(O)C1Cc2ccccc2CN1

MOLECULE: CC(=O)NCC(=O)N[C@@H](Cc1ccccc1)C(=O)N1CC2CCCCC2[C@H]1C(=O)NCC(=O)N[C@@H](CCCCN)C(=O)N1CC2CCCCC2[C@H]1C(=O)NCC(=O)N[C@@H](Cc1ccccc1)C(=O)N1CC2CCCCC2[C@H]1C(=O)NCC(=O)N[C@@H](CCCCN)C(=O)N[C@@H](CCCCN)C(=O)N[C@@H](CCCCN)C(=O)N[C@@H](CCCCN)C(=O)N[C@@H](CCCCN)C(N)=O (stereo not given in full) (Ac-GF[Pro(3ξ,4ξ-(CH2)4)]GK[Pro(3ξ,4ξ-(CH2)4)]GF[Pro(3ξ,4ξ-(CH2)4)]GKKKKK-NH2)
MIC: 3 µM
--
MOLECULE: CC(=O)NCC(=O)N[C@@H](Cc1ccccc1)C(=O)NCC(=O)N1CC2CCCCC2[C@H]1C(=O)NCC(=O)N[C@@H](CCCCN)C(=O)NCC(=O)N1CC2CCCCC2[C@H]1C(=O)NCC(=O)N[C@@H](Cc1ccccc1)C(=O)NCC(=O)N1CC2CCCCC2[C@H]1C(=O)NCC(=O)N[C@@H](CCCCN)C(=O)NCC(=O)N[C@@H](CCCCN)C(=O)N[C@@H](CCCCN)C(=O)N[C@@H](CCCCN)C(=O)N[C@@H](CCCCN)C(N)=O (stereo not given in full) (Ac-GFG[Pro(3ξ,4ξ-(CH2)4)]GKG[Pro(3ξ,4ξ-(CH2)4)]GFG[Pro(3ξ,4ξ-(CH2)4)]GKGKKKK-NH2)
MIC: 30 µM
--
MOLECULE: CC(=O)NCC(=O)N1Cc2ccccc2C[C@H]1C(=O)N1CC2CCCCC2[C@H]1C(=O)N[C@@H](CCCCN)C(=O)N1Cc2ccccc2C[C@H]1C(=O)N1CC2CCCCC2[C@H]1C(=O)NCC(=O)N1Cc2ccccc2CC1C(=O)N1CC2CCCCC2[C@H]1C(=O)N[C@@H](CCCCN)C(=O)N1Cc2ccccc2C[C@H]1C(=O)N[C@@H](CCCCN)C(=O)N[C@@H](CCCCN)C(=O)N[C@@H](CCCCN)C(=O)N[C@@H](CCCCN)C(N)=O (stereo not given in full) (Ac-G[Tic][Pro(3ξ,4ξ-(CH2)4)]K[Tic][Pro(3ξ,4ξ-(CH2)4)]G[ξTic][Pro(3ξ,4ξ-(CH2)4)]K[Tic]KKKK-NH2)
MIC: 1 µM
--
MOLECULE: CC(=O)NCC(=O)N[C@@H](Cc1ccccc1)C(=O)N1Cc2ccccc2C[C@H]1C(=O)NCC(=O)NCC(=O)N[C@@H](CCCCN)C(=O)N1Cc2ccccc2C[C@H]1C(=O)NCC(=O)NCC(=O)N[C@@H](Cc1ccccc1)C(=O)N1Cc2ccccc2C[C@H]1C(=O)NCC(=O)NCC(=O)N[C@@H](CCCCN)C(=O)N1Cc2ccccc2C[C@H]1C(=O)N[C@@H](CCCCN)C(=O)N[C@@H](CCCCN)C(=O)N[C@@H](CCCCN)C(=O)N[C@@H](CCCCN)C(N)=O (Ac-GF[Tic]GGK[Tic]GGF[Tic]GGK[Tic]KKKK-NH2)
MIC: 10 µM
--
MOLECULE: CC(=O)NCC(=O)N[C@@H](Cc1ccccc1)C(=O)N1Cc2ccccc2C[C@H]1C(=O)NCC(=O)N[C@@H](CCCCN)C(=O)N1Cc2ccccc2C[C@H]1C(=O)NCC(=O)N[C@@H](Cc1ccccc1)C(=O)N1Cc2ccccc2C[C@H]1C(=O)NCC(=O)N[C@H](CCCCN)C(=O)N1Cc2ccccc2C[C@H]1C(=O)N[C@@H](CCCCN)C(=O)N[C@@H](CCCCN)C(=O)N[C@@H](CCCCN)C(=O)N[C@@H](CCCCN)C(N)=O
MIC: 10 µM

----------
TEST METHOD NOTES: Toxicity to mouse RBC assessed as hemolytic activity at 100 uM
Format: cell-based, Erythrocyte
CONDITION DETAILS: red blood cells, read-out: Activity
Non-standard residues stand in square brackets, D forms with d. Residues, ends and D or L forms follow the SMILES beside them. ξ: configuration not given here. Pro(3ξ,4ξ-(CH2)4) = O=C(O)[C@H]1NCC2CCCCC21

MOLECULE: CC(=O)NCC(=O)N[C@@H](Cc1ccccc1)C(=O)NCC(=O)N1CC2CCCCC2[C@H]1C(=O)NCC(=O)N[C@@H](CCCCN)C(=O)NCC(=O)N1CC2CCCCC2[C@H]1C(=O)NCC(=O)N[C@@H](Cc1ccccc1)C(=O)NCC(=O)N1CC2CCCCC2[C@H]1C(=O)NCC(=O)N[C@@H](CCCCN)C(=O)NCC(=O)N[C@@H](CCCCN)C(=O)N[C@@H](CCCCN)C(=O)N[C@@H](CCCCN)C(=O)N[C@@H](CCCCN)C(N)=O (stereo partly specified) (Ac-GFG[Pro(3ξ,4ξ-(CH2)4)]GKG[Pro(3ξ,4ξ-(CH2)4)]GFG[Pro(3ξ,4ξ-(CH2)4)]GKGKKKK-NH2)
hemolysis at 100 µM: 3.3%

----------
TEST METHOD NOTES: Toxicity to mouse RBC assessed as hemolytic activity at 100 uM
Type: cell-based, Erythrocyte
CONDITION DETAILS: red blood cells, read-out: Activity
Non-standard residues stand in square brackets, D forms with d. Residues, ends and D or L forms follow the SMILES beside them. ξ: configuration not given here. Pro(3ξ,4ξ-(CH2)4) = O=C(O)[C@H]1NCC2CCCCC21; Tic = O=C(O)[C@@H]1Cc2ccccc2CN1
A collection of molecules and their measured hemolysis at 100 µM

MOLECULE: CC(=O)NCC(=O)N[C@@H](Cc1ccccc1)C(=O)N1CC2CCCCC2[C@H]1C(=O)NCC(=O)N[C@@H](CCCCN)C(=O)N1CC2CCCCC2[C@H]1C(=O)NCC(=O)N[C@@H](Cc1ccccc1)C(=O)N1CC2CCCCC2[C@H]1C(=O)NCC(=O)N[C@@H](CCCCN)C(=O)N[C@@H](CCCCN)C(=O)N[C@@H](CCCCN)C(=O)N[C@@H](CCCCN)C(=O)N[C@@H](CCCCN)C(N)=O (some centres not stated) (Ac-GF[Pro(3ξ,4ξ-(CH2)4)]GK[Pro(3ξ,4ξ-(CH2)4)]GF[Pro(3ξ,4ξ-(CH2)4)]GKKKKK-NH2)
hemolysis at 100 µM [%]: 5.9
//
MOLECULE: CC(C)C[C@H](NC(=O)[C@@H]1C2CCCCC2CN1C(=O)[C@@H]1Cc2ccccc2CN1C(=O)CNC(=O)[C@H](CCCCN)NC(=O)CNC(=O)[C@@H]1C2CCCCC2CN1C(=O)[C@@H]1Cc2ccccc2CN1C(=O)[C@H](CO)NC(=O)[C@H](CC(C)C)NC(=O)[C@@H](N)CCC(=O)O)C(=O)N[C@@H](CCCCN)C(=O)N[C@@H](CCC(=O)O)C(=O)N[C@@H](CO)C(N)=O (some centres not stated) (H-ELS[Tic][Pro(3ξ,4ξ-(CH2)4)]GKG[Tic][Pro(3ξ,4ξ-(CH2)4)]LKES-NH2)
hemolysis at 100 µM [%]: 23

----------
TEST METHOD NOTES: Toxicity to mouse RBC assessed as hemolytic activity at 100 uM
Assay type: cell-based, Erythrocyte
CONDITION DETAILS: red blood cells, read-out: Activity
Non-standard residues stand in square brackets, D forms with d. Residues, ends and D or L forms follow the SMILES beside them. ξ: configuration not given here. Pro(3ξ,4ξ-(CH2)4) = O=C(O)[C@H]1NCC2CCCCC21; Tic = O=C(O)[C@@H]1Cc2ccccc2CN1; ξTic = O=C(O)C1Cc2ccccc2CN1
Measured hemolysis at 100 µM of individual entries

MOLECULE: CC(=O)NCC(=O)N[C@@H](Cc1ccccc1)C(=O)N1Cc2ccccc2C[C@H]1C(=O)NCC(=O)N[C@@H](CCCCN)C(=O)N1Cc2ccccc2C[C@H]1C(=O)NCC(=O)N[C@@H](Cc1ccccc1)C(=O)N1Cc2ccccc2C[C@H]1C(=O)NCC(=O)N[C@H](CCCCN)C(=O)N1Cc2ccccc2C[C@H]1C(=O)N[C@@H](CCCCN)C(=O)N[C@@H](CCCCN)C(=O)N[C@@H](CCCCN)C(=O)N[C@@H](CCCCN)C(N)=O
UNITS: %
hemolysis at 100 µM: 6
--
MOLECULE: CC(=O)NCC(=O)N[C@@H](Cc1ccccc1)C(=O)N1Cc2ccccc2C[C@H]1C(=O)NCC(=O)NCC(=O)N[C@@H](CCCCN)C(=O)N1Cc2ccccc2C[C@H]1C(=O)NCC(=O)NCC(=O)N[C@@H](Cc1ccccc1)C(=O)N1Cc2ccccc2C[C@H]1C(=O)NCC(=O)NCC(=O)N[C@@H](CCCCN)C(=O)N1Cc2ccccc2C[C@H]1C(=O)N[C@@H](CCCCN)C(=O)N[C@@H](CCCCN)C(=O)N[C@@H](CCCCN)C(=O)N[C@@H](CCCCN)C(N)=O (Ac-GF[Tic]GGK[Tic]GGF[Tic]GGK[Tic]KKKK-NH2)
UNITS: %
hemolysis at 100 µM: 5.7
--
MOLECULE: CC(=O)NCC(=O)N1Cc2ccccc2C[C@H]1C(=O)N1CC2CCCCC2[C@H]1C(=O)N[C@@H](CCCCN)C(=O)N1Cc2ccccc2C[C@H]1C(=O)N1CC2CCCCC2[C@H]1C(=O)NCC(=O)N1Cc2ccccc2CC1C(=O)N1CC2CCCCC2[C@H]1C(=O)N[C@@H](CCCCN)C(=O)N1Cc2ccccc2C[C@H]1C(=O)N[C@@H](CCCCN)C(=O)N[C@@H](CCCCN)C(=O)N[C@@H](CCCCN)C(=O)N[C@@H](CCCCN)C(N)=O (stereo partly drawn) (Ac-G[Tic][Pro(3ξ,4ξ-(CH2)4)]K[Tic][Pro(3ξ,4ξ-(CH2)4)]G[ξTic][Pro(3ξ,4ξ-(CH2)4)]K[Tic]KKKK-NH2)
UNITS: %
hemolysis at 100 µM: 26.7
